target: revertant virus (AD169 CMV with the pentameric gH complex restored); experiment: cell-based or functional assay
Listed below: Neutralization in ARPE-19 cells EC50 values for each entry.

Example entries begin here.
1. 212.6 (antibody, V domains shown, rabbit hybridoma mAb; also called clone 212.6) VH: QSLEESGGRLVTPGTPLTLTCTVSGFSLSSYAMSWVRQAPGKGLEWIGIIGSSGNTYYASWAKGRFTISKTSTTVDLKITSPTTEDTATYFCARGGYSYDDYTPFDLWGPGTLVTVSS VL: ELVLTQSPSLSASLGTTARLTCTLSTGYSVGKYPLVWLQQVPGRPPRYLLTYHTEEFKHQGSGVHSRFSGSKDTSENAGVLSISGLQPEDEADYYCATAHATESSLHYVFGGGTQLTVT: 3.71 µg/mL
2. 124.4 (antibody, V domains shown, rabbit hybridoma mAb; also called clone 124.4) VH: QSLEESGGRLVTPGTPLTLTCTVSGFSLSSCNMGWVRQAPGEGLEWIGYIAASGDAFYASWAKGRFTISKTSSTTVDLRITSPTTEDTAAYFCARGSYAAYNAWDLWGPGTLVTVSS VL: ELDMTQTASPVSAAVGGTVTINCQSSQSVYNKNYLSWYQQKPGQPPKLLIYGASTLPSGVPSRFKGSGSGTQFTLTISEVQCDDAATYYCQGYYSGYIYAFGGGTEVVVK: 0.05 µg/mL

In: For the binder shown here, 70.7 (antibody, V domains shown, rabbit hybridoma mAb; also called clone 70.7) VH: QSVEESRGRLVTPGTPLTLTCTASGFSLSSYHMIWVRQAPGKGLEWIGYINYNNNPYYATWAKGRFTISRTSTTVALKITSPTTEDSATYFCARAAGNYYVGALNLWGPGTLVTISS VL: ERDMTQTPASVEVAVGGTVTIKCQASQSIGNLLAWYQQKPGQRPKLLIYDASTLASGVPSRFKGSGSGTEFTLTISGVQCADAATYYCQQGYMITNVENAFGGGTEVVVK , give the reported Neutralization in ARPE-19 cells EC50.
Out: 0.03 µg/mL

In: For the binder shown here, 350.1 (antibody, V domains shown, rabbit hybridoma mAb; also called clone 350.1; mAb 350.1) VH: QSLEESGGDLVKPGASLTLTCTASGFSFSNSYYMCWVRQAPGKGLEWIVCIYAGSSGFTYYANWAKGRFTVSKTSSTTVTLQMTSLTAADTATYFCARDRGYYTYGYAGYGYGMDLWGPGTLVTISS VL: ELDMTQTPSPVSTAVGGTVSISCQSGQNVWTNDYLSWYQQKPGQPPKLLIYRASTLASGVPSRFKGSGSGTQFTLTISDVQCDDAATYYCGGTFLSNGDNGFGGGTEVVVK , give the reported Neutralization in ARPE-19 cells EC50.
Out: 100 µg/mL
